System: Saccharomyces cerevisiae
assay-info: Saccharomyces cerevisiae toxicity assay
Assay type: cell-based
measurement-context: 3 h incubation, colony count vs DMSO only control; highest concentration tested 11 µg/µL
property-label: Cyto-Toxicity (50% Cell Death)

Past entries and their recorded results:
compound	Cyto-Toxicity (50% Cell Death)
C=C(c1ccc2c(c1)C(C)(C)CCC2(C)C)c1ncc(C(=O)O)cn1 [Compound 34]	none
CC(C)COc1ccc(-n2nnc3cc(C(=O)O)ccc32)cc1C(C)C [Compound 31]	none
C=C(c1ncc(C(=O)O)cn1)c1cc2c(cc1C)C(C)(C)CC2(C)C [Compound 32]	none
CCN(c1ccc(OCC(C)C)c(C(C)C)c1)c1ncc(C(=O)O)cn1 [Compound 28]	1 µg/µL

Would you kindly look at the next entry?
Quick check: Cyto-Toxicity (50% Cell Death) of C=C(c1ccc(C(=O)O)cc1)c1cc2c(cc1C)C(C)(C)CC2(C)C [Compound 26, reference compound] ? none
